Entries and their measured IC50 follow.
Target: cAMP-dependent protein kinase catalytic subunit alpha (Bos taurus, UniProt P00517)
Assay: PKA assay
Respond numerically; units are nM and should not be typed.

Recorded results for 3 compounds are shown here.
COc1ccc2c(c1)c1c3c(c4c5ccccc5n(CC(O)CN(C)C)c4c1n2C)C(=O)NC3=O (stereo unspecified) = 510
COc1ccc2c(c1)c1c3c(c4c5ccccc5n(CCCC#N)c4c1n2C)C(=O)NC3=O = 200
COc1ccc2c(c1)c1c3c(c4c5ccccc5n(CCC#N)c4c1n2C)C(=O)NC3=O = 400

As a next step, examine the compound that follows.
Give the measured IC50 of COc1ccc2c(c1)c1c3c(c4c5ccccc5n(CC(O)CN(C)C)c4c1n2C)CNC3=O (stereo unspecified) .
15000
